test.system: Man(a1-3)[Man(a1-6)]Man(a1-6)[Man(a1-2)Man(a1-3)]Man(b1-4)GlcNAc(b1-4)GlcNAc
method.summary: glycan array binding signal (z-score within array); higher = stronger binding
experimental.setup: glycan notation: IUPAC condensed, linker removed
The full list was thinned out, with the strongest signals kept by preference.
Exercise: for every item that follows, state its recorded glycan array binding signal (z-score).
Answers are plain numbers.

Some solved entries appear below for comparison.
[
  {
    "binder": "Actd5 (Actinidia), P84527 (protein) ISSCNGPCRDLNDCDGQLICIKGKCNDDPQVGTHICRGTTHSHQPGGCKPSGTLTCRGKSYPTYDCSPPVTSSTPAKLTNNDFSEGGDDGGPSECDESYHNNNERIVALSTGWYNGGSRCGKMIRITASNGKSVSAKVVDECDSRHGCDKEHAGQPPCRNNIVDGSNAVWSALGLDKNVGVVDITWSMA",
    "glycan array binding signal (z-score)": 5.03
  },
  {
    "binder": "CM2 (Cordyceps militaris) (protein) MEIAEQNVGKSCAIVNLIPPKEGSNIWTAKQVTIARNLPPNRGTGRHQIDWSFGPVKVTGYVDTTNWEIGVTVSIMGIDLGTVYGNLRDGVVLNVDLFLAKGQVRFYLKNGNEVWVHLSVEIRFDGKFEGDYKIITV",
    "glycan array binding signal (z-score)": 2.43
  },
  {
    "binder": "Nictaba (Nicotiana tabacum), Q94EW1 (protein) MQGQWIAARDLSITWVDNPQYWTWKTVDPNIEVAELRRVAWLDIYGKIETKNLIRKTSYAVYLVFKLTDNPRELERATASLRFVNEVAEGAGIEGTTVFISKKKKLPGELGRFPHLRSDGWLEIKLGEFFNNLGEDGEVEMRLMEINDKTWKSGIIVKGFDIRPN",
    "glycan array binding signal (z-score)": 6.51
  },
  {
    "binder": "DC-SIGN (Canis lupus), XP_853402 (protein) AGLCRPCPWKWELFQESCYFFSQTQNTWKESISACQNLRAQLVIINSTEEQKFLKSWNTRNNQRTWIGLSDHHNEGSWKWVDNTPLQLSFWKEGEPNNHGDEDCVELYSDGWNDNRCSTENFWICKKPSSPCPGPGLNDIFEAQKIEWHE",
    "glycan array binding signal (z-score)": 11.8
  },
  {
    "binder": "Gal 7 (Homo sapiens) (protein) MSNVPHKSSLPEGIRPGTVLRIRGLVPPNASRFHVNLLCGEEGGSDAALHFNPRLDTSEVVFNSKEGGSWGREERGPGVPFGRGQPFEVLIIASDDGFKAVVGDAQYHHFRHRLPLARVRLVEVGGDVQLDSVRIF",
    "glycan array binding signal (z-score)": -0.158
  }
]

Then there is this binder:
Task item: What measured glycan array binding signal (z-score) goes with DCL-1 (Homo sapiens), Q8IX05 (protein) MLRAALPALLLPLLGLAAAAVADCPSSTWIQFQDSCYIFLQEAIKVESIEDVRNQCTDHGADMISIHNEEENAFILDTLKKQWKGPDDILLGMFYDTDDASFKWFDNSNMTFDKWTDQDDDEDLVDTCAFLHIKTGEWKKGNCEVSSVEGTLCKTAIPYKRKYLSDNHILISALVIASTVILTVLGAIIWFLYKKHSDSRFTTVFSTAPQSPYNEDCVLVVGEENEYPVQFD ?
Reply: 10.6

Data credit: the supplement of paper PMC8728848
